Target entity: TRKC WT (Homo sapiens)
Sequence (Q16288 526-839): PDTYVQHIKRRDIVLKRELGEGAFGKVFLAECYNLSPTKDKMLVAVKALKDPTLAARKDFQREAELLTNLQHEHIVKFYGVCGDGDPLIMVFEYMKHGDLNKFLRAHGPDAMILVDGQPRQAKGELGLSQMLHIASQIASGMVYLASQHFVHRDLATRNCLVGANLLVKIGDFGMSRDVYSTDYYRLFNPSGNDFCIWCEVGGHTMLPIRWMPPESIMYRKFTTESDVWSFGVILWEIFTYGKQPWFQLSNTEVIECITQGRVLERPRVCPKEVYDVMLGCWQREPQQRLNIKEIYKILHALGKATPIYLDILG
Measured attribute: Kd (nM)
Reply with just the number (in nM).

Give its Kd value. Item: `Cc1c(C#Cc2cnc3cnc(-c4ccc(N)cc4)cn23)cccc1C(=O)Nc1cc(CN2CCN(C)CC2)cc(C(C)C)c1`
2.57
